target: human PD-1 (human, UniProt Q15116 25-288); test: cell-based or functional assay
Sequence (Q15116 25-288 limits assumed): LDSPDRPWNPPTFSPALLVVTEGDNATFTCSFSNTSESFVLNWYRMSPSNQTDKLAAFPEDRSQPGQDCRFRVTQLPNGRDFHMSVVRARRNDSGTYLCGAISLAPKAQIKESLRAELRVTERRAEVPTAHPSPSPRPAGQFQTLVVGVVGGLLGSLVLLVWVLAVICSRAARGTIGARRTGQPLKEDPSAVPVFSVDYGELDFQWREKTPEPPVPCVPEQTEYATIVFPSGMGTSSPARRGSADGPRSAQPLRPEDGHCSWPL
Provide the recorded M07e-hPD-1 cell proliferation ratio (%) at 0.1 nM for the entries that follow.
Write the answer as a number in %, unit excluded.

Ask: Please give the documented M07e-hPD-1 cell proliferation ratio (%) at 0.1 nM of A-N88D-M26 (Fc fusion, not shown: IgG1 hinge (C220S) + Fc Knob chain as in A-N88D; IgG1 hinge (C220S) + Fc Hole chain as in A-N88D) chain (part 1 of 2): EVQLVESGGGLVQPGGSLRLSCAASGLTFSSYSMSWYRQAPGKGRELVAIISGSGGITHYVDSVKGRFTISRDNAKNTLYLQMRSLRAEDTAVYYCRAVSDWEDYWGQGTQVTVSS chain (part 2 of 2): GGGGSGGGGSGGGGSAPASSSTKKTQLQLEHLLLDLQMILQGISNYKNPKLTRMLTAKFYMPKKATELKHLQCLEEELKPLEEVLQGAQSKNFHLRPRDLISDINVIVLELKGSETTFMCEYADETATIVEFLNRWITFAQSIISTLT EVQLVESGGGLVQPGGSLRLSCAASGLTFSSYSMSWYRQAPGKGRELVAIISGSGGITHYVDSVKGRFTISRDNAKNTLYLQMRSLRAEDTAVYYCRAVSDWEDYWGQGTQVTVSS
Result: 10.7

Ask: Please give the documented M07e-hPD-1 cell proliferation ratio (%) at 0.1 nM of A-N88D-M08 (Fc fusion, also called A-N88D-M8; not shown: IgG1 hinge (C220S) + Fc Knob chain as in A-N88D; IgG1 hinge (C220S) + Fc Hole chain as in A-N88D) chain (part 1 of 2): EVQLVESGGGLVQPGGSLRLSCAASGLTFSDYSMSWYRQAPGKGRELVAIISGSGVITHYVDSVKGRFTISRDNAKNTLYLQMRSLRAEDTAVYYCRAVSDWQDYWGQGTQVTVSS chain (part 2 of 2): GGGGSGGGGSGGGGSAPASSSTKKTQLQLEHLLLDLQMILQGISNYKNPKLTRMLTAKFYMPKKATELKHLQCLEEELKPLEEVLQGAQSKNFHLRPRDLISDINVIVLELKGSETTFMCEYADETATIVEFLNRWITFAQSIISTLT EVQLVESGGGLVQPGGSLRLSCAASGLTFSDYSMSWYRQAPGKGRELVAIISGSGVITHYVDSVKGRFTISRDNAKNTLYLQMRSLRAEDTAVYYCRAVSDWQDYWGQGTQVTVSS
Result: 27.3

Ask: Please give the documented M07e-hPD-1 cell proliferation ratio (%) at 0.1 nM of A-N88D-M28 (Fc fusion, not shown: IgG1 hinge (C220S) + Fc Knob chain as in A-N88D; IgG1 hinge (C220S) + Fc Hole chain as in A-N88D) chain (part 1 of 2): EVQLVESGGGLVQPGGSLRLSCAASGLTFSSYSMSWYRQAPGKGRELVAIISGSGGITHYADSVKGRFTISRDNAKNTLYLQMRSLRAEDTAVYYCRAVSDWQDYWGQGTQVTVSS chain (part 2 of 2): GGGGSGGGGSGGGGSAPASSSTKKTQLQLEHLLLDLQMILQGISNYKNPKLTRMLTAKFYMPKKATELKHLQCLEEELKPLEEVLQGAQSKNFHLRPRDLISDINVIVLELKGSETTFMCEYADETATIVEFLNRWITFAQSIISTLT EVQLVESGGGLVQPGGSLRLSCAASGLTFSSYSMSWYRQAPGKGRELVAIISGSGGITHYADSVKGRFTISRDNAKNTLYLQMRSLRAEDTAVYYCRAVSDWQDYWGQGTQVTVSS
Result: 7.6

Ask: Please give the documented M07e-hPD-1 cell proliferation ratio (%) at 0.1 nM of A-PC (Fc fusion, also called positive control molecule A-PC; PD-1-IL-2v; not shown: IgG1 hinge (C220S) + Fc Knob chain (L234A, L235A, S354C, T366W, EU); D356/L358 or E356/M358 ver; IgG1 hinge (C220S) + Fc Hole chain (L234A, L235A, Y349C, T366S, L368A, Y407V; may have H435R, Y436F; EU)) chain (part 1 of 2): EVQLVESGGGLVQPGGSLRLSCAASGLTFSDYSMSWYRQAPGKGRELVAIISGSGVITHYVDSVKGRFTISRDNAKNTLYLQMRSLRAEDTAVYYCRAVSDWEDYWGQGTQVTVSS chain (part 2 of 2): GGGGSGGGGSGGGGSAPASSSTKKTQLQLEHLLLDLQMILQGISNYKNPKLTRMLTAKFYMPKKATELKHLQCLEEELKPLEEVLQGAQSKNFHLRPRDLISNINVIVLELKGSETTFMCEYADETATIVEFLNRWITFAQSIISTLT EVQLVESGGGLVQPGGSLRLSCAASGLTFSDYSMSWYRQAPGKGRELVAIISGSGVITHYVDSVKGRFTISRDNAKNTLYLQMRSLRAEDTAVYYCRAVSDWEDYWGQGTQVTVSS
Result: 99.5
